- tgt: CAMK1D (human)
- assay_notes: KINOMEscan competition binding
- measurement_context: compound 10.0 µM
kinase still bound, per cent of control values for the compounds below.
Form field: result (number plus unit)

Record excerpt, results attached:
[[record]]
smiles_str = "CCN(CC)CCCCNc1ncc2c(n1)N(C)C(=O)N(c1c(Cl)c(OC)cc(OC)c1Cl)C2"
quantity_measured = "kinase still bound, per cent of control"
meas_value = "25%"

[[record]]
smiles_str = "COc1cc2ncnc(-n3nc(-c4ccccn4)nc3N)c2cc1OC"
quantity_measured = "kinase still bound, per cent of control"
meas_value = "34%"


Tell me the measured kinase still bound, per cent of control of COc1cc(N2CCN(C)CC2)ccc1Nc1ncc2c(n1)N(C)c1ccccc1C(=O)N2C , please. 100%

Tell me the measured kinase still bound, per cent of control of CNC(=O)c1ccc(Nc2cc(Nc3ccccc3S(=O)(=O)C(C)C)c3cc[nH]c3n2)nc1 , please. 100%

Tell me the measured kinase still bound, per cent of control of CCN1CCN(C(=O)Cc2ccc(Nc3ncc(F)c(Nc4ccc(C(=O)Nc5ccccc5Cl)cc4)n3)cc2)CC1 , please. 5.6%

Tell me the measured kinase still bound, per cent of control of COc1ccc(N(C(=O)Oc2c(C)cccc2C)c2ccnc(Nc3ccc(N4CCN(C)CC4)cc3)n2)c(OC)c1 , please. 100%

Tell me the measured kinase still bound, per cent of control of COc1cc(C(=O)N2CCC(N3CCN(C)CC3)CC2)ccc1Nc1ncc2c(n1)N(C)c1ccccc1C(=O)N2C , please. 69%

Tell me the measured kinase still bound, per cent of control of Cc1n[nH]c2ccc(-c3cncc(OC[C@@H](N)Cc4c[nH]c5ccccc45)c3)cc12 , please. 11%

* * *

- tgt: JAK2 JH1 catalytic (human) (UniProt O60674)
- Sequence (O60674 whole entry, looked up): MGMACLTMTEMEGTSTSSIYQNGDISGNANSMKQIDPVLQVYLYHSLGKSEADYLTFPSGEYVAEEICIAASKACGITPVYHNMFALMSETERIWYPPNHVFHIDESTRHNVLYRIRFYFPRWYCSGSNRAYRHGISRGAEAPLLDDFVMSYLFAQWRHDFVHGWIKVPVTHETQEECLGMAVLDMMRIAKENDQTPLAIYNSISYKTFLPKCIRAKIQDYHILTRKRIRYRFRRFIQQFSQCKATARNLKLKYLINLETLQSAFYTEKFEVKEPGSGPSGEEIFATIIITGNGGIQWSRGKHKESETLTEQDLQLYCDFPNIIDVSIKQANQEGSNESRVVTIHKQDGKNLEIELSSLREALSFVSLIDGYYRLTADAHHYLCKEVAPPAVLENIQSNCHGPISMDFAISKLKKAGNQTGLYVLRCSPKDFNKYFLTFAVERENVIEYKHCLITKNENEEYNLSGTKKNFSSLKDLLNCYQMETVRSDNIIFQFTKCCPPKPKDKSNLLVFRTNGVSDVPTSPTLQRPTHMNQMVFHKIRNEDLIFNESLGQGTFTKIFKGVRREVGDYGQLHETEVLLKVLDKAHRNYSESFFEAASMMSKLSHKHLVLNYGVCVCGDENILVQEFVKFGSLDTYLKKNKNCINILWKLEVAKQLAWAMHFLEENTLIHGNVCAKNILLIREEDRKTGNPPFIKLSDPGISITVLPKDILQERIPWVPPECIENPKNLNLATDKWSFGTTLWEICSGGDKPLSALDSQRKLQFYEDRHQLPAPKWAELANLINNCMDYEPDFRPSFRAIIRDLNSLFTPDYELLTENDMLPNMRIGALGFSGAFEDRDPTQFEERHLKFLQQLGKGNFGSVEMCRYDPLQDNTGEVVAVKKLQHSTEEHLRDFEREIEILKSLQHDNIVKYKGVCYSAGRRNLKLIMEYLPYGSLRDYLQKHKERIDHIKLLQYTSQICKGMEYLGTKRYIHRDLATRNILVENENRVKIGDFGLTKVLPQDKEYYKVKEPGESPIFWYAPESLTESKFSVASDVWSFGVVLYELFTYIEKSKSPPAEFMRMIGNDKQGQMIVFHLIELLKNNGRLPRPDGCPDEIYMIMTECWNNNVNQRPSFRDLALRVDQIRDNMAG
- assay_notes: KINOMEscan competition binding
- measurement_context: compound 10.0 µM
kinase still bound, per cent of control values for the compounds below.
Response body: numeric value in %, unit text excluded.

Record excerpt, results attached:
[[record]]
smiles_str = "Cc1n[nH]c2ccc(-c3cncc(OC[C@@H](N)Cc4c[nH]c5ccccc45)c3)cc12"
tgt = "JAK2 JH1 catalytic (human) (UniProt O60674)"
quantity_measured = "kinase still bound, per cent of control"
meas_value = 100

[[record]]
smiles_str = "C=CC(=O)Nc1cc(-n2c(=O)ccc3cnc4ccc(-c5cn[nH]c5)cc4c32)ccc1C"
tgt = "JAK2 JH1 catalytic (human) (UniProt O60674)"
quantity_measured = "kinase still bound, per cent of control"
meas_value = 16

[[record]]
smiles_str = "O=C(Nc1cccc(Nc2ncc(Br)c(NCCc3cnc[nH]3)n2)c1)N1CCCC1"
tgt = "JAK2 JH1 catalytic (human) (UniProt O60674)"
quantity_measured = "kinase still bound, per cent of control"
meas_value = 0

[[record]]
smiles_str = "COCC(=O)NC/C=C/c1ccc2ncnc(Nc3ccc(Oc4ccc(C)nc4)c(C)c3)c2c1"
tgt = "JAK2 JH1 catalytic (human) (UniProt O60674)"
quantity_measured = "kinase still bound, per cent of control"
meas_value = 100

[[record]]
smiles_str = "COc1cc2ncn(-c3cc(OCc4ccccc4C(F)(F)F)c(C(N)=O)s3)c2cc1OC"
tgt = "JAK2 JH1 catalytic (human) (UniProt O60674)"
quantity_measured = "kinase still bound, per cent of control"
meas_value = 48

[[record]]
smiles_str = "C[C@@H](Oc1cc(-c2cnn(C3CCNCC3)c2)cnc1N)c1c(Cl)ccc(F)c1Cl"
tgt = "JAK2 JH1 catalytic (human) (UniProt O60674)"
quantity_measured = "kinase still bound, per cent of control"
meas_value = 1.4


Tell me the measured kinase still bound, per cent of control of CCN(CC)CCCCNc1ncc2cc(-c3cc(OC)cc(OC)c3)c(NC(=O)NC(C)(C)C)nc2n1 , please. 100

Tell me the measured kinase still bound, per cent of control of CCN1CCN(C(=O)Cc2ccc(Nc3ncc(F)c(Nc4ccc(C(=O)Nc5ccccc5Cl)cc4)n3)cc2)CC1 , please. 76

Tell me the measured kinase still bound, per cent of control of COc1cc(C(=O)N2CCC(N3CCN(C)CC3)CC2)ccc1Nc1ncc2c(n1)N(C)c1ccccc1C(=O)N2C , please. 70

Tell me the measured kinase still bound, per cent of control of CN(C)C/C=C/C(=O)Nc1ccc(C(=O)Nc2cccc(Nc3nccc(-c4cccnc4)n3)c2)cc1 , please. 8.4

* * *

- tgt: CLK4 (human) (UniProt Q9HAZ1)
- Sequence (Q9HAZ1 whole entry, looked up): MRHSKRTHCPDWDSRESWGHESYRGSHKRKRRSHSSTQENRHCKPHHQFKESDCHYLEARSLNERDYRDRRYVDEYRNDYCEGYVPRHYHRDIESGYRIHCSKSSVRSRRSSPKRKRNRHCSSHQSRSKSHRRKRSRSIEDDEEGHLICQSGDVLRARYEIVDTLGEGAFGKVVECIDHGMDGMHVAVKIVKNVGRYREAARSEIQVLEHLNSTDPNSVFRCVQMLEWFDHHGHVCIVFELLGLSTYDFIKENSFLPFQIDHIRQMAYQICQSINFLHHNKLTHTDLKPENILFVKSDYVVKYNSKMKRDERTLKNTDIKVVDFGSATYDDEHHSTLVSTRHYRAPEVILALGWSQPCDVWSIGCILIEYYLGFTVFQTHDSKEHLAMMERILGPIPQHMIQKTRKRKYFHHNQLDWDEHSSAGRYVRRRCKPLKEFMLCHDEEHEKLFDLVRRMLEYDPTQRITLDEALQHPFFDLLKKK
- assay_notes: KINOMEscan competition binding
- measurement_context: compound 10.0 µM
quantity_measured: kinase still bound, per cent of control (%)
Response body: numeric value in %, unit text excluded.

[[record]]
smiles_str = "CCN(CC)CCCCNc1ncc2c(n1)N(C)C(=O)N(c1c(Cl)c(OC)cc(OC)c1Cl)C2"
unit_label = "%"
meas_value = 100

[[record]]
smiles_str = "COCC(=O)NC/C=C/c1ccc2ncnc(Nc3ccc(Oc4ccc(C)nc4)c(C)c3)c2c1"
unit_label = "%"
meas_value = 100

[[record]]
smiles_str = "NC(=O)Nc1cc(-c2cccc(F)c2)sc1C(=O)N[C@@H]1CCCNC1"
unit_label = "%"
meas_value = 2.4


Tell me the measured kinase still bound, per cent of control of CCN1CCN(C(=O)Cc2ccc(Nc3ncc(F)c(Nc4ccc(C(=O)Nc5ccccc5Cl)cc4)n3)cc2)CC1 , please. 28

Tell me the measured kinase still bound, per cent of control of Cc1n[nH]c2ccc(-c3cncc(OC[C@@H](N)Cc4c[nH]c5ccccc45)c3)cc12 , please. 2.6

Tell me the measured kinase still bound, per cent of control of O=C1NC(=O)/C(=C/c2ccc3nccc(-c4ccncc4)c3c2)S1 , please. 0.2

Tell me the measured kinase still bound, per cent of control of O=c1cc(N2CCOCC2)oc2c(-c3cccc4c3sc3ccccc34)cccc12 , please. 95

Tell me the measured kinase still bound, per cent of control of CCN(CC)CCCCNc1ncc2cc(-c3cc(OC)cc(OC)c3)c(NC(=O)NC(C)(C)C)nc2n1 , please. 100

Tell me the measured kinase still bound, per cent of control of CNC(=O)c1cc(Oc2ccc(NC(=O)Nc3ccc(Cl)c(C(F)(F)F)c3)cc2)ccn1 , please. 52

Tell me the measured kinase still bound, per cent of control of CN(C)C/C=C/C(=O)Nc1ccc(C(=O)Nc2cccc(Nc3nccc(-c4cccnc4)n3)c2)cc1 , please. 2.2

Tell me the measured kinase still bound, per cent of control of N#CCNC(=O)c1ccc(-c2ccnc(Nc3ccc(N4CCOCC4)cc3)n2)cc1 , please. 15

Tell me the measured kinase still bound, per cent of control of O=C(Nc1cccc(Nc2ncc(Br)c(NCCc3cnc[nH]3)n2)c1)N1CCCC1 , please. 28

* * *

kinase still bound, per cent of control values for the compounds below.
- Test system: ABL1 (human), P00519 [H396P]
- assay_notes: KINOMEscan competition binding
- measurement_context: compound 10.0 µM
Form field: result (number plus unit)

[[record]]
compound = "CCC(=O)N1CCN(c2ccc(-n3c(=O)ccc4cnc5ccc(-c6cnc7ccccc7c6)cc5c43)cc2C(F)(F)F)CC1"
quantity_measured = "kinase still bound, per cent of control"
meas_value = "68%"


Tell me the measured kinase still bound, per cent of control of CC[C@@H]1C(=O)N(C)c2cnc(Nc3ccc(C(=O)NC4CCN(C)CC4)cc3OC)nc2N1C1CCCC1 , please. 100%

Tell me the measured kinase still bound, per cent of control of COc1cc(C)c(Sc2cnc(NC(=O)c3ccc(CNC(C)C(C)C)cc3)s2)cc1C(=O)N1CCN(C(C)=O)CC1 (centres undefined) , please. 100%

Tell me the measured kinase still bound, per cent of control of Cc1n[nH]c2ccc(-c3cncc(OC[C@@H](N)Cc4c[nH]c5ccccc45)c3)cc12 , please. 100%

* * *

- tgt: INSR (human) (UniProt P06213)
- Sequence (P06213 whole entry, looked up): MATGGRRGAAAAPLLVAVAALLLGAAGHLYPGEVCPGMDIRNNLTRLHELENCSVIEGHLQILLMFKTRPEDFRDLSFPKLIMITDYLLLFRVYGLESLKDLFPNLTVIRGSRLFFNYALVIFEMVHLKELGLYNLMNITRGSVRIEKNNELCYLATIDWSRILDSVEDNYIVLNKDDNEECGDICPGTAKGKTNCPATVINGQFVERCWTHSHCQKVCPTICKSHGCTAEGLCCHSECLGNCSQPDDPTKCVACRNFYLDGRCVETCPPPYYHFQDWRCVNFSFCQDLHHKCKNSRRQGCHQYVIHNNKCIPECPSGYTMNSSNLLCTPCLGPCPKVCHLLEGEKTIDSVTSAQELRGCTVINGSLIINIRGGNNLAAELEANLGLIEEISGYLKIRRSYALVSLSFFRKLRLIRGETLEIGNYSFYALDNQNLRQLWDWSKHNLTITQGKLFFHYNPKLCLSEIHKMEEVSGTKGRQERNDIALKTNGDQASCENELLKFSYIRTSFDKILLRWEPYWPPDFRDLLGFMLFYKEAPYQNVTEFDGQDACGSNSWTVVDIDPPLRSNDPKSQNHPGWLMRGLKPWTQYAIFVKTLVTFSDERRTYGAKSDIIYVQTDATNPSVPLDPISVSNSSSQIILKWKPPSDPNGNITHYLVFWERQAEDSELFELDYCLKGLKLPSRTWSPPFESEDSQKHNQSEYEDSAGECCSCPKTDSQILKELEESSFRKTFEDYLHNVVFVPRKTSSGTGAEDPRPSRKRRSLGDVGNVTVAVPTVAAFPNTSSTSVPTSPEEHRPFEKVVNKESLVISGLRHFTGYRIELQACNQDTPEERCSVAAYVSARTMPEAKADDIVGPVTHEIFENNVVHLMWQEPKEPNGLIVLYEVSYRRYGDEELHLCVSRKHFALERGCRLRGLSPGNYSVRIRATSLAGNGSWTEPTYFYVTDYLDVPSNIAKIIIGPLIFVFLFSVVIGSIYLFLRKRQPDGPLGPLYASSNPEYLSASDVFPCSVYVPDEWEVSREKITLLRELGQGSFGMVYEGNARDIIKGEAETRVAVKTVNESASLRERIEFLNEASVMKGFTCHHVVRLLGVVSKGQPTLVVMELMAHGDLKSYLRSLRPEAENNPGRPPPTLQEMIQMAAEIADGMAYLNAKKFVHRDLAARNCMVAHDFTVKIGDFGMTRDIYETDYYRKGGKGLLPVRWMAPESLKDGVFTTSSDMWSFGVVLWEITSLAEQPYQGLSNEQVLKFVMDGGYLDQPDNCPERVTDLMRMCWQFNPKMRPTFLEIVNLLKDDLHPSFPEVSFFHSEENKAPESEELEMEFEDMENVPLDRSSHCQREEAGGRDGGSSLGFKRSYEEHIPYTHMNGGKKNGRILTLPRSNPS
- assay_notes: KINOMEscan competition binding
- measurement_context: compound 10.0 µM
quantity_measured: kinase still bound, per cent of control (%)
Response body: numeric value in %, unit text excluded.

Record excerpt, results attached:
[[record]]
smiles_str = "COc1cc(C(=O)N2CCC(N3CCN(C)CC3)CC2)ccc1Nc1ncc2c(n1)N(C)c1ccccc1C(=O)N2C"
unit_label = "%"
meas_value = 84

[[record]]
smiles_str = "CN(C)C/C=C/C(=O)Nc1ccc(C(=O)Nc2cccc(Nc3nccc(-c4cccnc4)n3)c2)cc1"
unit_label = "%"
meas_value = 74


Tell me the measured kinase still bound, per cent of control of CCN1CCN(C(=O)Cc2ccc(Nc3ncc(F)c(Nc4ccc(C(=O)Nc5ccccc5Cl)cc4)n3)cc2)CC1 , please. 78

* * *

kinase still bound, per cent of control values for the compounds below.
- tgt: PTK2 (human)
- assay_notes: KINOMEscan competition binding
- measurement_context: compound 10.0 µM
Response body: numeric value in %, unit text excluded.

[[record]]
smiles_str = "C=CC(=O)Nc1cc(-n2c(=O)ccc3cnc4ccc(-c5cn[nH]c5)cc4c32)ccc1C"
quantity_measured = "kinase still bound, per cent of control"
meas_value = 96

[[record]]
smiles_str = "Cc1n[nH]c2ccc(-c3cncc(OC[C@@H](N)Cc4c[nH]c5ccccc45)c3)cc12"
quantity_measured = "kinase still bound, per cent of control"
meas_value = 100

[[record]]
smiles_str = "CCN1CCN(C(=O)Cc2ccc(Nc3ncc(F)c(Nc4ccc(C(=O)Nc5ccccc5Cl)cc4)n3)cc2)CC1"
quantity_measured = "kinase still bound, per cent of control"
meas_value = 28

[[record]]
smiles_str = "N#CCNC(=O)c1ccc(-c2ccnc(Nc3ccc(N4CCOCC4)cc3)n2)cc1"
quantity_measured = "kinase still bound, per cent of control"
meas_value = 85


Tell me the measured kinase still bound, per cent of control of O=C1NC(=O)/C(=C/c2ccc3nccc(-c4ccncc4)c3c2)S1 , please. 100

Tell me the measured kinase still bound, per cent of control of C[C@@H](Oc1cc(-c2cnn(C3CCNCC3)c2)cnc1N)c1c(Cl)ccc(F)c1Cl , please. 0

Tell me the measured kinase still bound, per cent of control of CCN(CC)CCCCNc1ncc2cc(-c3cc(OC)cc(OC)c3)c(NC(=O)NC(C)(C)C)nc2n1 , please. 100

Tell me the measured kinase still bound, per cent of control of COc1cc(C(=O)N2CCC(N3CCN(C)CC3)CC2)ccc1Nc1ncc2c(n1)N(C)c1ccccc1C(=O)N2C , please. 34

Tell me the measured kinase still bound, per cent of control of CNC(=O)c1ccc(Nc2cc(Nc3ccccc3S(=O)(=O)C(C)C)c3cc[nH]c3n2)nc1 , please. 0

// data source = the kinase profiling compilation of Christmann-Franck et al. (2016)
